Each recorded value in this set is attributed to patent US8093035B2.

System: TKU015 nattokinase
Experiment: Influence of organic solvents on TKU015 nattokinase activity at different temperature (ten days)
Assay type: biochemical, Pseudomonas sp. TKU015
Conditions: mixed with solvent, placed ten days at 4 ° C.; 100% represents 15 FU/mL
parameter_measured: Relative activity(%) TKU015 nattokinase
// units = %; emit number, no label

Assign Relative activity(%) TKU015 nattokinase to the following record: `CO`
116

Assign Relative activity(%) TKU015 nattokinase to the following record: CCOC(C)=O [ethyl acetate]
118

Assign Relative activity(%) TKU015 nattokinase to the following record: CN(C)C=O [DMF, N,N-dimethylformamide]
120

Assign Relative activity(%) TKU015 nattokinase to the following record: `Cc1ccccc1`
120

Assign Relative activity(%) TKU015 nattokinase to the following record: `CC#N`
90

Assign Relative activity(%) TKU015 nattokinase to the following record: `CC(C)=O`
128

Assign Relative activity(%) TKU015 nattokinase to the following record: `C[S+](C)[O-]`
90

Assign Relative activity(%) TKU015 nattokinase to the following record: `CC(C)O`
115

Assign Relative activity(%) TKU015 nattokinase to the following record: `CCO`
114

Assign Relative activity(%) TKU015 nattokinase to the following record: `CCOCC`
98

Assign Relative activity(%) TKU015 nattokinase to the following record: `CC(C)CCO`
88
